- Tested on: KB
- ASSAY SUMMARY: Cytotoxicity against human KB cells after 72 hrs by SRB assay
- Assay type: functional
- ASSAY SETUP: read-out: ED50 (the source's name)
MEASURED PROPERTY: log10 EC50 (log10 of the value in nM)
Give log10 of EC50, with EC50 taken in nM.

The reported log10 EC50 value, KB, for "O=c1cc(Nc2ccc(F)cc2)c2ccc3ccccc3c2o1" reads 3.08

---

Here the recorded log10 of EC50 is given for each entry.
- Test system: KB
- ASSAY SUMMARY: Cytotoxicity against human KB cells after 72 hrs by SRB assay
- Assay type: functional
- ASSAY SETUP: read-out: ED50 (the source's name)
Give log10 of EC50, with EC50 taken in µM.

Here's what some known entries look like.
MOL SMILES | log10 of EC50
COc1ccc(Nc2cc(=O)oc3c2ccc2ccccc23)cc1 | -0.96
CON(C)C(=O)CNc1cc(=O)oc2c1ccc1ccccc12 | 0.34
O=c1cc(Nc2ccc(Br)cc2)c2ccc3ccccc3c2o1 | -0.39
O=c1cc(Nc2ccccc2Br)c2ccc3ccccc3c2o1 | -0.80

Let us examine a further case.
response.value for "Cc1ccccc1Nc1cc(=O)oc2c1ccc1ccccc12" (field: log10 of EC50) = 0.32

Sourced from ChEMBL document CHEMBL1177814
